tested on: NCI-H460 lung; test: NCI-60 one-dose screen, 48 h (100 = growth as untreated, 0 = no growth, -100 = all killed); conditions: 10 µM unless noted
Compounds without any hit were thinned out: in the full panel of roughly 83,000, 20% have a hit.
MEASURED METRIC: growth (%)
Could you give me the number in %? Just the number is fine.

Use the examples below as a reference point.
COc1ccc(/C=N/NC(=O)c2ccc(S(C)(=O)=O)cc2)cc1OC = 109
CCCCCCCCCCC[C@@H](C[C@H]1OC(=O)[C@H]1CCCCCC)OC(=O)[C@@H](CC(C)C)NC=O = 42.9
Cc1c(C(N)=O)sc2ncn(Cc3ccccc3)c(=O)c12 = 108
O[C@@H]1Cc2ccc3ccccc3c2N[C@H](c2ccoc2)C1 = 116

Now examine the next entry.
Could you tell me which growth is on file for CCc1[nH]nc(-c2ccc(OC)cc2)c1-c1ccccc1OCCN(CC)CC ?
103

---

test system: HCC-2998 colon; assay: NCI-60 one-dose screen, 48 h (100 = growth as untreated, 0 = no growth, -100 = all killed); conditions: 10 µM unless noted
About 83,000 compounds went through this panel and 20% of them were active in at least one assay; those are over-represented in the sample as a whole.
growth: recorded values
Could you give me the number in %? Just the number is fine.

Use the examples below as a reference point.
COc1ccc(C2CC(c3cccc(Nc4ccnc5cc(Cl)ccc45)c3)=NN2C=O)cc1 (stereo unspecified) = 35.4
N=c1ccn2c(n1)O[C@@H]1[C@@H](O)[C@H](CO)O[C@@H]12 = 50.2

Could you tell me which growth is on file for O=C(Nc1cccc(C(F)(F)F)c1)Nc1ccc(OCc2nnc(-c3ccc(Cl)cc3)o2)c(F)c1 ?
72.1

Could you tell me which growth is on file for COC1=CC(c2ccc[nH]2)=N/C1=C\c1[nH]c(C)c(C(=O)CCC(=O)Oc2ccc3c(c2)CCC2C3CC[C@]3(C)C(=O)CC[C@@H]23)c1C (stereo partly specified) ?
79.8

Could you tell me which growth is on file for CCCCC(C#N)C(N)=O (stereo unspecified) ?
104

---

tested on: MDA-MB-231 breast; assay: NCI-60 one-dose screen, 48 h (100 = growth as untreated, 0 = no growth, -100 = all killed); settings: 10 µM unless noted
Compounds without any hit were thinned out: in the full panel of roughly 83,000, 20% have a hit.
MEASURED METRIC: growth (%)
Could you give me the number in %? Just the number is fine.

Could you tell me which growth is on file for Cc1cc(O)c2c(c1)C[C@H]1[C@@H]3CC[C@H]4CC(=O)CC[C@]4(C)[C@H]3CC(=O)[C@]21C ?
86

Could you tell me which growth is on file for O=C(CSc1nnc(Nc2ccccc2)s1)NCCc1ccc(F)cc1 ?
91.5

Could you tell me which growth is on file for CC(C)(C)c1ccc(C(O)CCCN2CCC(C(O)(c3ccccc3)c3ccccc3)CC2)cc1 (stereo unspecified) ?
-89.4

Could you tell me which growth is on file for CC(=O)Oc1ccc(C2OC(c3ccc4ccccc4c3OC(C)=O)=NN2C(C)=O)c(OC(C)=O)c1 (stereo unspecified) ?
39.9

Could you tell me which growth is on file for O=C(/C=C/c1ccc(O)c(O)c1)N1CCN(c2ccc(Cl)cc2)CC1 ?
59.2

Could you tell me which growth is on file for Clc1nc(Cl)c2ncn(-c3ccccc3)c2n1 ?
63.1

Could you tell me which growth is on file for C=C1c2c(C)nn(-c3ccc(C#CCOC4OC(CO)C(O)C(O)C4O)cc3)c2N(C)C23C[C@H]1C1(C)c4c(C)nn(-c5ccc(C#CCOC6OC(CO)C(O)C(O)C6O)cc5)c4N(C)C(C)(C[C@H]12)C3 (stereo partly specified) ?
5.4

Could you tell me which growth is on file for c1ccc(-n2nnnc2-c2cccc3ccccc23)cc1 ?
25.4

Could you tell me which growth is on file for c1ccc(-c2nnc(Nc3nnc(-c4ccccc4)s3)s2)cc1 ?
102

---

test system: SK-OV-3 ovarian; assay: NCI-60 one-dose screen, 48 h (100 = growth as untreated, 0 = no growth, -100 = all killed); settings: 10 µM unless noted
This is part of a sample that, as a whole, favours compounds with a hit. Of some 83,000 tested, about 20% had one in any assay.
The threshold is 90%. Values of growth beneath it are tagged true (1); values meeting or exceeding it are tagged false (0).

Completed entries (count: 5):
Cc1cc(NCCCNc2ccnc3cc(Cl)ccc23)nc(N2CCN(C)CC2)n1 = false (0)
CC(=O)Oc1ccc(C2OC(c3ccc4ccccc4c3OC(C)=O)=NN2C(C)=O)c(OC(C)=O)c1 (centres undefined) = true (1)
O=C1C2C3C=CC(O3)C2C(=O)N1Nc1ccccc1 (centres undefined) = false (0)
S=C(Nc1ccc(C2=NCCN2)cc1)Nc1ccc(C2=NCCN2)cc1 = false (0)
Cc1nn(-c2ccc(Br)cc2)c2nc3c(nc12)C(=O)C(=O)c1ccccc1-3 = false (0)

I wonder whether O=C(Nc1cccc([N+](=O)[O-])c1)c1cccc(C(=O)Nc2cccc([N+](=O)[O-])c2)c1 has growth below 90%. Can you tell?
true (1)

I wonder whether COc1cc2c(c(OC)c1OC)-c1ccc(NN(C(=O)c3ccccc3)C(=O)c3ccccc3)c(=O)cc1[C@@H](NC(C)=O)CC2 (tested in a mixture with another compound) has growth below 90%. Can you tell?
true (1)

I wonder whether Clc1ccc2c(Nc3ccc4oc(NCCN5CCCC5)nc4c3)ccnc2c1 has growth below 90%. Can you tell?
false (0)

I wonder whether CCCCc1nc(Cl)c(CO)n1Cc1ccc(-c2ccccc2-c2nn[nH]n2)cc1 has growth below 90%. Can you tell?
false (0)

---

growth: recorded values
tested on: NCI-H23 lung; experiment: NCI-60 one-dose screen, 48 h (100 = growth as untreated, 0 = no growth, -100 = all killed); conditions: 10 µM unless noted
This is part of a sample that, as a whole, favours compounds with a hit. Of some 83,000 tested, about 20% had one in any assay.
Could you give me the number in %? Just the number is fine.

Use the examples below as a reference point.
COc1cc(/C=C2\COc3ccc(O)c(O)c3C2=O)cc(OC)c1 = 49.1
COc1ccc(C(=O)Nc2nc(-c3ccc(Cl)cc3)cs2)cc1 = 114

Could you tell me which growth is on file for C[n+]1ccc(Nc2ccc(NC(=O)c3ccc(Nc4cc[n+](C)c5ccc(N)cc45)cc3)cc2)cc1 ?
104

Could you tell me which growth is on file for C/C(=C\CCc1ccsc1)CC/C=C(\C)CCCN1CCC(CO)CC1 ?
61.4

Could you tell me which growth is on file for CCCCOc1ccc(C(C)(C)c2ccc(OCCCC)cc2)cc1 ?
103

Could you tell me which growth is on file for CCCOc1ccc2c(c1)CC[C@@H]1[C@@H]2CC[C@@]2(C)[C@H]1CC[C@]2(C)O ?
93.2

Could you tell me which growth is on file for CCCCCCCC1(C)NC(=O)NC1=O (stereo unspecified) ?
132

Could you tell me which growth is on file for COc1cccc2c1C(=O)c1c(O)c3c(c(O)c1C2=O)C[C@@](O)(/C(C)=N/NC(=O)c1cccc([N+](=O)[O-])c1)C[C@@H]3OC1CC(N)C(O)C(C)O1 (stereo partly specified) ?
-33.6

Could you tell me which growth is on file for Cc1c(N(C)CS(=O)(=O)O)c(=O)n(-c2ccccc2)n1C ?
109

Could you tell me which growth is on file for Clc1ccc2nc(Cl)c3ccccc3c2c1 ?
84.6

Could you tell me which growth is on file for Cc1cc(O)c2c(c1)C[C@H]1[C@@H]3CC[C@H]4CC(=O)CC[C@]4(C)[C@H]3CC(=O)[C@]21C ?
77.3

Could you tell me which growth is on file for Nc1ccc(S(=O)(=O)Nc2ncccn2)cc1 ?
114

---

tested on: ACHN renal; experiment: NCI-60 one-dose screen, 48 h (100 = growth as untreated, 0 = no growth, -100 = all killed); details: 10 µM unless noted
This is part of a sample that, as a whole, favours compounds with a hit. Of some 83,000 tested, about 20% had one in any assay.
The threshold is 80%. Values of growth beneath it are tagged yes; values meeting or exceeding it are tagged no.

COc1ccc2c(c1)C(=O)c1c-2c(OCCN(C)C)nc2cc(OC)ccc12 = yes

I wonder whether CCC(CC)NCCCCCNc1cc(OC)cc2cccnc12 has growth below 80%. Can you tell?
no

I wonder whether C=C(C[C@@](O)(C(=O)Oc1ccccc1)C(=O)C1CCCCC1)c1ccccc1 has growth below 80%. Can you tell?
no

I wonder whether CCC1=C(c2ccc(OC)cc2)C(C)(C)Oc2c1ccc(O)c2CN1CCCC1 has growth below 80%. Can you tell?
yes

I wonder whether CCCCC(C#N)C(N)=O (stereo not given) has growth below 80%. Can you tell?
no

I wonder whether O=C(/C(=C/c1ccc([N+](=O)[O-])cc1)c1ccccc1)c1ccccc1 has growth below 80%. Can you tell?
yes

I wonder whether Cn1cc(-c2csc(-c3cn(C)c4ncccc34)n2)c2cc(Br)cnc21 has growth below 80%. Can you tell?
no

I wonder whether CCCCN(CCCC)CCCOC(=O)c1ccc(N)cc1 has growth below 80%. Can you tell?
no

I wonder whether O=C(/C=C/c1ccc(O)c(O)c1)N1CCN(c2ccc(Cl)cc2)CC1 has growth below 80%. Can you tell?
yes

I wonder whether Clc1ccc(-c2nc(-c3cccs3)no2)c(Cl)c1 has growth below 80%. Can you tell?
no

I wonder whether c1cncc(CNc2ccccc2-c2nnc(Nc3ccc4c(c3)OCO4)o2)c1 has growth below 80%. Can you tell?
yes

I wonder whether CCOC(=O)c1cc(-c2cccnc2)nc2c(Cl)cc(Cl)cc12 has growth below 80%. Can you tell?
yes

I wonder whether NC(=O)N/N=C/c1ccc(Br)o1 has growth below 80%. Can you tell?
no

I wonder whether O=C(Cc1ccccn1)C(F)(F)C(F)(F)C(F)(F)F has growth below 80%. Can you tell?
no

I wonder whether CN1CCN(Cc2ccc(NC(=O)c3[nH]ncc3Nc3ccnc4ccnn34)cc2)CC1 has growth below 80%. Can you tell?
yes

I wonder whether CC/C(=C\c1ccc(N(C)C)cc1)c1nc2ccccc2c(=O)[nH]1 has growth below 80%. Can you tell?
no

I wonder whether CCCCCCCCCCSc1ncnc2nc[nH]c12 has growth below 80%. Can you tell?
yes

I wonder whether CCOC(=O)c1c(C)c(C(=O)OCC)n(C)c1C has growth below 80%. Can you tell?
no

I wonder whether CC(=O)c1ccc2c3c(n(C)c2c1)CCCC3 has growth below 80%. Can you tell?
no

I wonder whether COc1cc(C2C=C(c3ccc(C)cc3)Nc3nc(SC)[nH]c(=O)c32)ccc1Oc1ccnc2cc(Cl)ccc12 (stereo not given) has growth below 80%. Can you tell?
yes

I wonder whether COc1cc(C2=NN(C(C)=O)C(c3ccc(OC(C)=O)cc3OC(C)=O)O2)c(OC(C)=O)c2ccccc12 (stereo not given) has growth below 80%. Can you tell?
yes

I wonder whether CCOC(Cc1c(N)[nH]c(=S)[nH]c1=O)OCC has growth below 80%. Can you tell?
no

I wonder whether COc1cc(/C=C/C(=O)c2c(-c3ccc(Cl)cc3)nc3sc(C)nn23)cc(OC)c1OC has growth below 80%. Can you tell?
yes

I wonder whether CC(C)[C@]12O[C@H]1[C@@H]1O[C@]13[C@]1(O[C@H]1C[C@H]1C4=C(CC[C@@]13C)C(=O)OC4)[C@@H]2OC(=O)CN(C)C has growth below 80%. Can you tell?
yes

Source of measurements: PubChem BioAssay (NCI)
